B1: HDV Ribozyme (parent)
chain: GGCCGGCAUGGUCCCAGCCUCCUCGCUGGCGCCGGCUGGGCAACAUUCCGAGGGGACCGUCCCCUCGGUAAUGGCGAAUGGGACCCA

- Variants of: B1
- method: self-cleavage, relative activity (ratio to wild type); higher = more cleavage; co-transcriptional
endpoint: self-cleavage
Answers are plain numbers.

Some variants with recorded self-cleavage:
>>> measured("GGCUGGCAUGGUCCCAGCCUCCUCGCUGGCGCCGGCUGGGCAACAUUCCGAGGGGACCGUCCCCUCGGUAAUGGCGAAUGGGACCCC [C4U A87C]")
0.708
>>> measured("GGCCGGCAUGGUCCCUGCCUCCUCGCUGGCGCCGGCUGGGCAACAUUCCGAGGGGACCGUCCCCUCGGUAAUGGCGAAUGGGACCCA [A16U]")
0.984
>>> measured("GGCCGGCAUGGUCCCAGCCUCCUCGCUGGCGCCGGCUGGGCAACAUUUCGAGGGGACCGUCCCCUGGGUAAUGGCGAAUGGGACCCA [C48U C66G]")
0.658
>>> measured("GGCCGGCAUGGUCCCAGCCUCCUCGCUGGCGCCGGCUGGGCAACAUUCCGAGGGGACCGUCCCCUCGGCAAUGGCAAAUGGGACCCA [U69C G76A]")
1.07
>>> measured("GGCCGGCAUGGUCCCAGCCUCCUCGCUGGCGCCGGCUGGGCAACAUUCCGAGGGUACCGUCCCCUCGGUAUUGGCGAAUGGGACCCA [G55U A71U]")
0.786

Okay, here is my list. What is self-cleavage for each of these?
1. GGCCGGCAUGGUCCCAGCCUCCUCGCUGGCGCAGGCUGGGCAACAUUCCGAGGGGACCGUCCCCUCGGUAAUGGCGAAUGGGACCCA [C33A]
2. GGCCGGCAUGGUCCCAGCCUACUCGCUGGCGCCGGCUGGGCAACAUUCCGAGGGGACCGUCUCCUCGGUAAUGGCGAAUGGGACCCA [C21A C62U]
3. GGCCGGCAUGGUCCCAGCCUCCUCGCUGGCGCCGGCUGGGCAAAAUUCCGAGGGGACCGUCGCCUCGGUAAUGGCGAAUGGGACCCA [C44A C62G]
4. GGCCGCCAUGGUCCCAGCCUCCGCGCUGGCGCCGGCUGGGCAACAUUCCGAGGGGACCGUCCCCUCGGUAAUGGCGAAUGGGACCCA [G6C U23G]
5. GGCCGGCAUGGUCCCAGCCUCCUCGCUGGCGCCGGCUGGGCAACAUUCGGAGGGGACCGUCCCCUCGGUAAUGGCGAAUUGGACCCA [C49G G80U]
6. GGCCGGCGUGGUCCCAGCCUCCUCGCUGGCGCCAGCUGGGCAACAUUCCGAGGGGACCGUCCCCUCGGUAAUGGCGAAUGGGACCCA [A8G G34A]
7. GGCCGGCAUGGUCCCAGCCUCCUCGCUGGCGCCGGCUGGGCAACAAUCCGAGGGGACCGUCCCCUCGGUUAUGGCGAAUGGGACCCA [U46A A70U]

Completion:
1: 0.29; 2: 0.0519; 3: 0.162; 4: 0; 5: 0.123; 6: 0.095; 7: 0.587

Okay, here is my list. What is self-cleavage for each of these?
1. GGCCGGCAUGGUCCCAGCCUCCUCGCUGGCGCCGGCUGGACAACAUUCCGAGGGGACCGUCCCCUCGGUAAUGGCGAACGGGACCCA [G40A U79C]
2. GGCAGGCAUGGUUCCAGCCUCCUCGCUGGCGCCGGCUGGGCAACAUUCCGAGGGGACCGUCCCCUCGGUAAUGGCGAAUGGGACCCA [C4A C13U]
3. GGCCGGCAUGGUCCCAGCCUCCUCGCUGGCGCCGGCUGGGCAAAAUUCCGAGGGGAGCGUCCCCUCGGUAAUGGCGAAUGGGACCCA [C44A C57G]

Completion:
0.41
0.0739
0.684

Okay, here is my list. What is self-cleavage for each of these?
1. GGCCGGCAUGGUCCCAGCCUCCUCGCUGGCGCCGGCUGGGCAACAUUCCGAGGGAACCGUCCCCUCGGUGAUGGCGAAUGGGACCCA [G55A A70G]
2. GGCCGGCAUGGUCCCAACCUCCACGCUGGCGCCGGCUGGGCAACAUUCCGAGGGGACCGUCCCCUCGGUAAUGGCGAAUGGGACCCA [G17A U23A]
3. GGCCGGCAUGGUCCCAGCCUCCUCGCUGGCGCCGGCUGGGCAACAUUCCGAGGGGACCGUCCCCUCGGUAAUGCCGAAUGGGACACA [G74C C85A]
4. GGCCGGCAUGGUCCCAGCCUCCUCGCUGGCGCCGGCUGGGCAACAUUCCGAGGGGACCGUCGCCUCGGUAAUGGCGAGUGGGACCCA [C62G A78G]
5. GGCCGGCAUGGUCCCAGCCUCCUCGCUGGCGCCGGCUGGGCAACAUUCCGAGGGGACCGUCCCCUCGUUAAAGGCGAAUGGGACCCA [G68U U72A]
6. GGCCGGCAUGGUCCCAGCCUCCUCGCUGGCGCCGGCUGGGCAAUAGUCCGAGGGGACCGUCCCCUCGGUAAUGGCGAAUGGGACCCA [C44U U46G]
7. GGCAGGCAUGGUCCCAGCCUCCUCGCUGGCGCCGGCUGGGCAACAUUCCGAGGGGACCGUCCCCUCGAUAAUGGCGAAUGGGACCCA [C4A G68A]

Completion:
[0.89, 0.686, 0.217, 0.745, 0.277, 0.712, 0.196]

Okay, here is my list. What is self-cleavage for each of these?
1. GGCCGGCAUGGUCCCAGCCUCCUCGCUGGCGCUGGCUGGGCAUCAUUCCGAGGGGACCGUCCCCUCGGUAAUGGCGAAUGGGACCCA [C33U A43U]
2. GGCCGGCAUGGUCCCAGCCUCCUCGCUGGCUCCGGCUGGGCAACAUUCCGAGGGGACCGUCCUCUCGGUAAUGGCGAAUGGGACCCA [G31U C63U]

Completion:
1: 0.356; 2: 0.41
